Biological target: ATP-dependent translocase ABCB1 (Homo sapiens, UniProt P08183)
Sequence (P08183 whole entry): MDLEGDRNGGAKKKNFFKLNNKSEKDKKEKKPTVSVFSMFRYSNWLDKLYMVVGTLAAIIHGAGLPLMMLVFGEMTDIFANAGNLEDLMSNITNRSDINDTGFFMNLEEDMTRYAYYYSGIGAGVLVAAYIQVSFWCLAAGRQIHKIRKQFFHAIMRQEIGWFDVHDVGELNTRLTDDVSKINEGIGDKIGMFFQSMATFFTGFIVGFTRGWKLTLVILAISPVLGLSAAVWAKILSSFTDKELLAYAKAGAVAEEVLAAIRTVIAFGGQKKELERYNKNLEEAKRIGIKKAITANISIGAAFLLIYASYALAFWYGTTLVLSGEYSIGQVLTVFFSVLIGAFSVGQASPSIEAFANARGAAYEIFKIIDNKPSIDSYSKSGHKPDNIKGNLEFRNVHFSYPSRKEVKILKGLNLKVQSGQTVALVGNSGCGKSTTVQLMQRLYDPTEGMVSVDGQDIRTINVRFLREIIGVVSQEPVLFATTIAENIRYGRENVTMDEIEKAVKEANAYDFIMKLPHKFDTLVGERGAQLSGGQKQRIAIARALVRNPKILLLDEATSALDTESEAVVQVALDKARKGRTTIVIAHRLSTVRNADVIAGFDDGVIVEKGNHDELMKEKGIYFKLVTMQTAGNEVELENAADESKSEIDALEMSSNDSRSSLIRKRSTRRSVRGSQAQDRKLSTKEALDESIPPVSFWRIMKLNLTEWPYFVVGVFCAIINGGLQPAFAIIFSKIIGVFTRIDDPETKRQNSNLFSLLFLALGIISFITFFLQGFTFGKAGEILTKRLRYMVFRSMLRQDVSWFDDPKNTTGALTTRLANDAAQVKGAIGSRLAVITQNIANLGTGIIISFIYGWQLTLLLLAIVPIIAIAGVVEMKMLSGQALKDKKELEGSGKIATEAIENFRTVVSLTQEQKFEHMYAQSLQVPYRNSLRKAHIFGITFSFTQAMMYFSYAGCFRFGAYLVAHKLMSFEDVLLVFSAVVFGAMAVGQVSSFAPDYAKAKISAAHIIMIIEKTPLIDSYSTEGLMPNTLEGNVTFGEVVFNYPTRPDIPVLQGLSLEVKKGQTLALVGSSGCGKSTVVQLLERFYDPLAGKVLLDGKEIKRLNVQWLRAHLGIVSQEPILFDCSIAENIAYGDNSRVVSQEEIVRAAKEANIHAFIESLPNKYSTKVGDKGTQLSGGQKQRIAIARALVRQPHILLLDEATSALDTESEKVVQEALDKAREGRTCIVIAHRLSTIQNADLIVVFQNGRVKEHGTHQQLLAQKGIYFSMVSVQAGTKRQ
Assay: Inhibition of human MDR1-mediated multidrug resistant in mouse L5178Y cells at 40 uM treated 10 mins before rhodamine 123 challenge measured after 20 mins relative to control
Format: cell-based
Reported Property: Ratio
// no unit, no text: just the number

Which Ratio value is on record for `O=C1/C(=C/c2ccccc2)CN(C(=O)c2ccccc2C(=O)N2C/C(=C\c3ccccc3)C(=O)/C(=C/c3ccccc3)C2)C/C1=C\c1ccccc1` ?
51.5

Entry `O=C1/C(=C/c2ccccc2)CN(C(=O)CC(=O)N2C/C(=C\c3ccccc3)C(=O)/C(=C/c3ccccc3)C2)C/C1=C\c1ccccc1` has what Ratio?
53.3

Given `O=C1/C(=C/c2ccccc2)CN(C(=O)CCC(=O)N2C/C(=C\c3ccccc3)C(=O)/C(=C/c3ccccc3)C2)C/C1=C\c1ccccc1` , state its recorded Ratio.
60

Consider the compound shown here: `O=C1/C(=C/c2ccccc2)CN(C(=O)CCCCCCC(=O)N2C/C(=C\c3ccccc3)C(=O)/C(=C/c3ccccc3)C2)C/C1=C\c1ccccc1` What is its recorded Ratio?
55.7
